Tested on: IFN-a/Jak1Tyk2
Assay: Co-stimulation assay in lysed whole blood: IFNa (JAK1/TYK2) stimulated STAT1 phosphorylation
Assay type: cell-based
Settings: 20 min, lysed human whole blood, IFNa 100 ng/mL + GM-CSF 10 ng/mL, pSTAT1 by flow cytometry
measure: IC50

molecule=CNc1cc(Nc2csnc2C(=O)OC)nc2c(C(=O)NC3CC3)cnn12 reading="> 300 nM"
molecule=CNc1cc(Nc2cscc2C(=O)O)nc2c(C(=O)NC3CC3)cnn12 reading="> 300 nM"
molecule=CNc1cc(Nc2cccn(-c3cccc(C)n3)c2=O)nc2c(C(=O)NC3CCC3)cnn12 reading="< 100 nM"
molecule=[2H]C([2H])([2H])n1cccc(Nc2cc(NC)n3ncc(C(=O)NC4CCC4)c3n2)c1=O reading="< 100 nM"
molecule=CNc1cc(Nc2cccnc2C)nc2c(C(=O)NC3CC3)cnn12 reading="> 300 nM"
molecule=CNc1cc(Nc2cc(F)cc(F)c2OC)nc2c(C(=O)NCC(C)(C)CO)cnn12 reading="< 100 nM"
molecule=CNc1cc(Nc2cccn(-c3ccc(OC)nn3)c2=O)nc2c(C(=O)NCC(C)(C)O)cnn12 reading="1000 to 10000 nM"
molecule=CNc1cc(Nc2csnc2C(=O)O)nc2c(C(=O)NCCOC)cnn12 reading="> 300 nM"
molecule=CNc1cc(Nc2cccc3c2CCCO3)nc2c(C(=O)NC3CC3)cnn12 reading="100 to 1000 nM"
molecule=CCNc1cc(Nc2cc(C)cc(C)c2)nc2c(C(N)=O)cnn12 reading="100 to 1000 nM"
molecule="CNc1cc(Nc2cc(F)cc(F)c2OC)nc2c(C(=O)NCC(C)(O)CO)cnn12 (centres unmarked)" reading="< 100 nM"
molecule=CC(C)(CO)CNC(=O)c1cnn2c(NC3CC3)cc(Nc3cccc4c3OCO4)nc12 reading="1000 to 10000 nM"
molecule=CNc1cc(Nc2cccn(C)c2=O)nc2c(C(=O)NC3CCC3)cnn12 reading="< 100 nM"
molecule=[2H]C([2H])([2H])Nc1cc(Nc2cccn(C)c2=O)nc2c(C(=O)NC3CCC3)cnn12 reading="< 100 nM"
molecule=CNc1cc(Nc2cc(C)cnc2OC)nc2c(C(=O)NC3CC3)cnn12 reading="100 to 1000 nM"
molecule=CNc1cc(Nc2ccccc2OC(F)(F)F)nc2c(C(=O)NC3CC3)cnn12 reading="100 to 1000 nM"
molecule=CNc1cc(Nc2cccn(C)c2=O)nc2c(C(=O)NC3CC(F)(F)C3)cnn12 reading="1000 to 10000 nM"
